molecular target: MOP (Homo sapiens); test: cAMP biosensor assay, MOP antagonist mode; type: cell-based
Sequence (P35372 whole entry): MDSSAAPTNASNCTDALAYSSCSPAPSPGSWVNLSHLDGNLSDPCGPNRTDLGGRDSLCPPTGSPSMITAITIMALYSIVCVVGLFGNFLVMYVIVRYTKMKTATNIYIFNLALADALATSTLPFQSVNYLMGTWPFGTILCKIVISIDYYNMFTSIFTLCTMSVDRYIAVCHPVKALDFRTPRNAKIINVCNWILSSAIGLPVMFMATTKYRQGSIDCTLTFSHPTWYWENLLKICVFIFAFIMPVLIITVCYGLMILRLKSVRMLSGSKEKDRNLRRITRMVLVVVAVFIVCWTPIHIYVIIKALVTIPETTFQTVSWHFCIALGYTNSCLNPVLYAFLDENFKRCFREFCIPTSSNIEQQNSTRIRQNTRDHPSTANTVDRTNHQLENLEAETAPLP
PROPERTY_MEASURED: IC50

Solved cases below.
1) c1ccc2c(c1)nc(C1CCNCC1)n2C1CCN(CC2CCCCCCC2)CC1 [Cpd 10]; > 10 µM
2) CC1=C(CN2CCC(n3c(C4CNC4)nc4cc(F)ccc43)CC2)C(C)(C)CCC1 [Cpd 53]; > 10 µM
3) Cc1ccc2c(c1)nc([C@@H]1CCNC1)n2C1CCN(CC2CCCCCCC2)CC1 [Cpd 41]; > 100 µM

The recorded IC50 for entry CC1(C)[C@H]2CC=C(CN3CCC(n4c([C@@H]5CCCNC5)nc5ccccc54)CC3)[C@@H]1C2 [Cpd 58] equals > 10 µM

Reported IC50 ( CS(=O)(=O)c1ccc2c(c1)nc([C@@H]1CCNC1)n2C1CCN(CC2CCCCCCC2)CC1 [Cpd 44] ) = > 10 µM

IC50 reading for c1ccc(CN2CCC(n3c([C@@H]4CCNC4)nc4ccccc43)CC2)cc1 [Cpd 59] : > 10 µM

----------
biological target: MOP (Homo sapiens); test: cAMP biosensor assay, MOP antagonist mode
pIC50: −log10 of the molar value.
PROPERTY_MEASURED: pIC50

Below, 2 compounds whose answers are already recorded.
1) c1ccc2c(c1)nc(C1CNC1)n2C1CCN(CC2CCCCC2)CC1; < 5.00
2) Fc1ccc2c(c1)nc([C@@H]1CCCNC1)n2C1CCN(CC2CCCCCCC2)CC1; 5.52

The recorded pIC50 for C1=CC2CC1CC2CN1CCC(n2c(C3CNC3)nc3ccccc32)CC1 (stereo not drawn) is < 5.00
